Would you mind telling me the reported MIC of each entry?
# Test system: Klebsiella pneumoniae
# Run Description: Antimicrobial activity against carbapenemases KPC-producing Klebsiella pneumoniae VA-361 infected in sc dosed CD-1 mouse in presence of 4 ug/ml NXL104 beta-lactamase inhibitor
# Assay type: functional

Record MIC for all entries; do not skip any.
1. CO/N=C(\C(=O)N[C@@H]1C(=O)N2C(C(=O)O)=C(COC(C)=O)CS[C@H]12)c1csc(N)n1
2. CC(C)(O/N=C(\C(=O)N[C@@H]1C(=O)N2C(C(=O)[O-])=C(C[n+]3ccccc3)CS[C@H]12)c1csc(N)n1)C(=O)O
3. CO/N=C(\C(=O)N[C@@H]1C(=O)N2C(C(=O)[O-])=C(C[N+]3(C)CCCC3)CS[C@H]12)c1csc(N)n1 [CEFEPIME]
4. CCN1CCN(C(=O)N[C@@H](C(=O)N[C@@H]2C(=O)N3[C@@H]2SC(C)(C)[C@@H]3C(=O)O)c2ccccc2)C(=O)C1=O

A)
1. 0.125 µg/mL
2. 0.25 µg/mL
3. ≤ 0.06 µg/mL
4. ≤ 0.06 µg/mL

====

# Tested on: Klebsiella pneumoniae
# Run Description: Antimicrobial activity against carbapenemases KPC-producing Klebsiella pneumoniae VA-406 infected in sc dosed CD-1 mouse in presence of 4 ug/ml NXL104 beta-lactamase inhibitor
# Assay type: functional
Measured Attribute: MIC (µg/mL)
Numbers only, in µg/mL.

# annotated cases, reported MIC shown
>  <Compound>
CO/N=C(\C(=O)N[C@@H]1C(=O)N2C(C(=O)[O-])=C(C[N+]3(C)CCCC3)CS[C@H]12)c1csc(N)n1 [CEFEPIME]

>  <Target System>
Klebsiella pneumoniae

>  <MIC [µg/mL]>
0.125

$$$$
>  <Compound>
CCN1CCN(C(=O)N[C@@H](C(=O)N[C@@H]2C(=O)N3[C@@H]2SC(C)(C)[C@@H]3C(=O)O)c2ccccc2)C(=O)C1=O [PIPERACILLIN]

>  <Target System>
Klebsiella pneumoniae

>  <MIC [µg/mL]>
0.5

$$$$

Continue with the next compound.
Q) Please report the measured MIC for CO/N=C(\C(=O)N[C@@H]1C(=O)N2C(C(=O)O)=C(COC(C)=O)CS[C@H]12)c1csc(N)n1 [CEFOTAXIME]
A) 0.125

====

Would you mind telling me the reported MIC of each entry?
# Tested on: Klebsiella pneumoniae
# Run Description: Antimicrobial activity against carbapenemases KPC-producing Klebsiella pneumoniae VA-361 infected in sc dosed CD-1 mouse in presence of 2 ug/ml NXL104 beta-lactamase inhibitor
# Type: functional
One number for each entry, in µg/mL.

>  <Compound>
CO/N=C(\C(=O)N[C@@H]1C(=O)N2C(C(=O)O)=C(COC(C)=O)CS[C@H]12)c1csc(N)n1 [CEFOTAXIME]

>  <Measured Attribute>
MIC

>  <Test Value>
0.5

$$$$
>  <Compound>
CO/N=C(\C(=O)N[C@@H]1C(=O)N2C(C(=O)[O-])=C(C[N+]3(C)CCCC3)CS[C@H]12)c1csc(N)n1 [CEFEPIME]

>  <Measured Attribute>
MIC

>  <Test Value>
0.25

$$$$
>  <Compound>
CC(C)(O/N=C(\C(=O)N[C@@H]1C(=O)N2C(C(=O)[O-])=C(C[n+]3ccccc3)CS[C@H]12)c1csc(N)n1)C(=O)O [CEFTAZIDIME]

>  <Measured Attribute>
MIC

>  <Test Value>
4

$$$$

Continue with the next compound.
Q) Please report the measured MIC for CCN1CCN(C(=O)N[C@@H](C(=O)N[C@@H]2C(=O)N3[C@@H]2SC(C)(C)[C@@H]3C(=O)O)c2ccccc2)C(=O)C1=O [PIPERACILLIN]
A) 8
